- test target: T1, human PD-L2 (full-length, on cells) (human, UniProt Q9BQ51 20-273)
- T1 chain: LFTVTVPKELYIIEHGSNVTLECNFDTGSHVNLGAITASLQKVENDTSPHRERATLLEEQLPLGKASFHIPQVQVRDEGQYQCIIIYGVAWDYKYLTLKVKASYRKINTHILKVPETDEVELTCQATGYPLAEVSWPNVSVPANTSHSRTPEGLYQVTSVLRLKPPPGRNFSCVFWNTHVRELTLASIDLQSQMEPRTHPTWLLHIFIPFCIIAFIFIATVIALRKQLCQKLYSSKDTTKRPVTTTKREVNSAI
- procedure summary: FACS, NCI-H226 cells
measure name: pEC50
Numbers only, as −log10 of the molar value.

Batch of 3 binders: report pEC50 for each.
1. 7H5-C5 (antibody, V domains shown, Both formats under this entry) VH: QVQLVESGGGLVKPGGSLRLSCAASGFSLSDYYMSWTRQAPGRGLEWVSFISSSGSTIYYVDSVKGRFTISRDHAKNSLYLQINSLRAEDTAVYYCARAQWLPDFDYWGQGTLVTVSS VL: QSALTQPPSASGSPGQSVTISCTGTSSDVSGYNYVSWYQHHPDKAPKLLIYEVNKRPSGVPARFSGSKSGNTASLTVSGLQAEDEADYYCTSFADNNNVVFGGGTKLTVLG
2. 9A3-C7 (antibody, V domains shown, Both formats under this entry) VH: QVQLVESGGGLVKPGGSLRLSCAASGFSLSDYYMSWIRQAPGRGLEWVSYISSSGSTIYYVDSVKGRFTISRDNAKNSLYLQINSLRAEDTAVYHCARAQWLPDFDYWGQGTLVTVSS VL: QSALTQPPSASGSPGQSVTISCTGTSSDVGGYNYVSWYQHHPGKVPKLMIYEVSKRPSGVPDRFSGSKSGNTASLTVSGLQAEDEADYYCTSFADNNNVGFGGGTKLTVLG
3. 19B3-B3 (antibody, V domains shown, Both formats under this entry) VH: QVQLVQSGAEVKKPGASVKVSCMASGYTFTNYAIHWVRQAPGQRLEWMGWINTGLGKPKYSQMFQDRVTITRDTSASTASMELSGLRSDDTAVYYCARVGWELYFDYWGQGTLVTVSS VL: DIQMTQSPSTLSASVGDRVTITCRASQSISSLLAWYQQKPGKAPKLLIYKASSLESGVPSRFSGSGSGTEFTLTISSLQPDDFATYFCQQYNSYWTFGQGTKVEIK

Result:
[9.29, 9.19, 9.75]
